ASSAYED_SYSTEM: human-derived receptor TLR7 (Homo sapiens)
Construct: host or cells: HEK-Blue hTLR7 cells (HEK293-derived reporter line)
Sequence (Q9NYK1 27-1049): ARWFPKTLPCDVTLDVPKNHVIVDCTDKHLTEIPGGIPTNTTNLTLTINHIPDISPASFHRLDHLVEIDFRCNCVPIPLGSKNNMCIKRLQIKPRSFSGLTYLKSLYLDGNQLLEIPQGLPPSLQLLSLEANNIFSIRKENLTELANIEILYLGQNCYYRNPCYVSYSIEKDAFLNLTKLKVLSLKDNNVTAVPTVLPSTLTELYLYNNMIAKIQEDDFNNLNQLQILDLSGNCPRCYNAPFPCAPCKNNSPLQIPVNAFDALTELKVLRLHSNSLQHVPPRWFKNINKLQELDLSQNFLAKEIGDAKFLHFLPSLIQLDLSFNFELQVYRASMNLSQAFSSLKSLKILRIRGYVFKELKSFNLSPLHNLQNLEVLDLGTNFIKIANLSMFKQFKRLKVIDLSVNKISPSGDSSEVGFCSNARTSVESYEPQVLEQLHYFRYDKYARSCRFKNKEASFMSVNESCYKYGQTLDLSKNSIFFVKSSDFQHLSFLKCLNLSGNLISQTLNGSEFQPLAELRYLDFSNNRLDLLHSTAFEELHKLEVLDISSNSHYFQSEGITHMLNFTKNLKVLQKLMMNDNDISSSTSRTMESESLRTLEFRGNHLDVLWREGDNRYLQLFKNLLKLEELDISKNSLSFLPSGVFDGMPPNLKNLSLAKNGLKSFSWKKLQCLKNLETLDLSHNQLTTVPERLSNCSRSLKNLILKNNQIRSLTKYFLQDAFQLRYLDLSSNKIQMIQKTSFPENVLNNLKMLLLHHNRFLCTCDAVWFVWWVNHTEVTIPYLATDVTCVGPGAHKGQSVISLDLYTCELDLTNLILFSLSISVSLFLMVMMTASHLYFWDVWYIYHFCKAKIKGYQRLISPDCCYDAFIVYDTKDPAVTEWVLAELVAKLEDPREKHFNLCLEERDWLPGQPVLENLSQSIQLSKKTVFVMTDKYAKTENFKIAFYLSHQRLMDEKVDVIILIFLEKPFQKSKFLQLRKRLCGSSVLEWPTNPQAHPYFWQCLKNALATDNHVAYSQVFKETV
MEASUREMENT_PROTOCOL: Assay on agonistic activity for human-derived receptor TLR7 (HEK-Blue hTLR7 cells, HEK-Blue Detection Medium)
Type: cell-based
CONDITION: 16 h incubation, absorbance at 655 nm, read-out: EC50
pEC50: −log10 of the molar value.
Listed here: items and their measured pEC50.
MEASURED_ENDPOINT: pEC50

>>> df
                                   compound        result
0  CCSc1nc2c(N)nc3ccccc3c2n1Cc1ccc(CNC(C)C)cc1        > 7.30
1  CCCCOc1nc(N)c2[nH]c(=O)n(Cc3ccc(CN4CCC(O)C4)s3)c2n1 (stereo not shown)        > 7.30
2  COc1cc(CN2C[C@H]3CN(C)C[C@H]3C2)ccc1Cn1c(SC)nc2c(N)nc3ccccc3c21  7.00 to 7.30
3  C=CCSc1nc2c(N)nc3ccccc3c2n1Cc1ccc(CN2CC[C@@H](F)C2)cc1  7.00 to 7.30
